Sourced from PubChem BioAssay (NCI)

Recorded measurements of GI50, one per entry
Test system: BT-549 breast
ASSAY_METHOD_TEXT: NCI tumour cell line growth inhibition, 48 h

Example results:
# MOLECULE, GI50
records = [
    ("N=C1C(c2nc3ccccc3s2)=C(O)CN1c1cc(C(F)(F)F)ccc1Cl", "43.4 µM"),
    ("Cc1cc(C(=O)Nc2ncc(Cc3cccc(C(F)(F)F)c3)s2)c2ccccc2n1", "3.61 µM"),
    ("NS(=O)(=O)c1ccc(N=Nc2c(O)[nH]c3ccc(-c4cnco4)cc23)cc1", "18 µM"),
]

GET /value?item= Cc1ccc(C(=O)CN(/C=C/C(=O)C(F)(F)F)c2ccc(S(N)(=O)=O)cc2)cc1 &field=GI50 returns 58.9 µM

The molecule identified as CCCCC(O)(c1ccc(Cl)cc1)C(CN1CCOCC1)c1ccc(Cl)cc1 (stereo not given) registered its GI50 at 15.7 µM
